// provenance: paper PMC6384913

# ASSAY_TARGET: (EWS-ZF)x2 (Homo sapiens, UniProt Q01844-5 523-555)
# Sequence (Q01844 518-550): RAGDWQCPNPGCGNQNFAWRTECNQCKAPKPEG
# PROTOCOL_DESCRIPTION: BLI; ITC: 50 mM Tris pH 7.5, 150 mM NaCl, 1 mM DTT, 0.1 mM ZnCl2, 25 °C; BLI: 50 mM Tris pH 7.5, 150 mM NaCl, 1 mM DTT, 0.1% BSA, 0.02% Tween, 30 °C
# CONDITION_NOTES: protein: recombinant; tags: GST cleaved (HRV-3C); label: 5' biotin
PROPERTY_NAME: Kd (nM)
// note: answer is a bare numeric in nM

[Q] I would be grateful if you could share the reported Kd for AAAGGGGGGAAA (ssRNA) [(GGG)x2 biotin] .
[A] 1100

[Q] Given the binder AAAGGUGGUAAA (ssRNA) [(GGU)x2 biotin] , what is its reported Kd?
[A] 800
